Kindly state IC50 for each of the entries shown.
TESTED ON: Amine oxidase [flavin-containing] B (Homo sapiens, UniProt P27338)
Sequence (P27338 whole entry): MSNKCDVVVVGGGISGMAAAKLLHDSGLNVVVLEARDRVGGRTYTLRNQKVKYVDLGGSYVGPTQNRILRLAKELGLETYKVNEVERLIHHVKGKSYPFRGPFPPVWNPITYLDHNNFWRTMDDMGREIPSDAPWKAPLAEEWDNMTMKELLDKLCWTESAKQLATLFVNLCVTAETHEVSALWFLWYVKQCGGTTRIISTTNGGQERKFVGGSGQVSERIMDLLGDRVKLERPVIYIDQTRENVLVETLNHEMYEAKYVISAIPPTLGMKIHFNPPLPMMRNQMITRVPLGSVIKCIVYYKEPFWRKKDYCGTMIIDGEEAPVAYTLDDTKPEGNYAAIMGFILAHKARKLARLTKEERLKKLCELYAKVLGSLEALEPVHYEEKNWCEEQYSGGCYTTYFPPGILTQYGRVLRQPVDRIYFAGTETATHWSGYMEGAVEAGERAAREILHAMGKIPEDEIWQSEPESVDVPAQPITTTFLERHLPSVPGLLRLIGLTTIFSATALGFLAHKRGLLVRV
TEST DESCRIPTION: Inhibition of recombinant MAO-B (unknown origin) using benzylamine as a substrate by MAO assay

1) Clc1ccccc1C(c1ccccc1)(c1ccccc1)n1ccnc1 [CLOTRIMAZOLE]    31.2 µM
2) CC(=O)NC[C@H]1CN(c2ccc(N3CCOCC3)c(F)c2)C(=O)O1 [LINEZOLID]    0.619 µM

Now consider a different compound.
// IC50 lookup, key: Clc1ccc(COC(Cn2ccnc2)c2ccc(Cl)cc2Cl)c(Cl)c1 (stereo not drawn) [MICONAZOLE] 13.2 µM
